Molecular target: T1, soluble KIR3DL1*001-Fc (human, UniProt P43629 22-340)
T1 construct: also called KIR3DL1 allele 001; KIR3DL1 allele-001 antigen; not shown: Fc domain
Assay: BLI (Forte-Bio), partial fit, IgG
Each record here notes measured koff.
I only need the number, in s⁻¹, no unit after it.

As a guide, the following entries are already answered.
ET160-61 (antibody, human IgG1, V domains shown, Tested as human IgG1 (hIgG1), lambda light chain) VH: QVQLVESGGGLVQPGRSLRLSCAASGFTFDDYAMHWVRQAPGKGLEWVSGISWNSGSIGYADSVKGRFTISRDNAKNSLYLQMNSLRAEDTAVYYCASSLRYFEWPIDYWGQGTLVTVSS VL: NFMLTQPLSVSESPGKTVTISCTANGGSLASKYVQWFQQRPGSSPTTVIYDDNLRPSGVPDRFSGSIDTSSNSAALTISGLKTEDEADYYCQSYDNSSVVFGGGTKLTVLG | 0.00193
ET160-73 (antibody, human IgG1, V domains shown, Tested as human IgG1 (hIgG1), kappa light chain) VH: QVQLVQSGAEVKKPGESLKISCKGSGYSFTSYWIGWVRQMPGKGLEWMGIIYPGDSDTRYSPSFQGQVTISADKSISTAYLQWSSLKASDTAMYYCARGREQLWLDGMDVWGQGTTVTVSS VL: DVVMTQSPLSLPVTLGQPASISCRSTQSLVHSDGNTYLNWFQQRPGQSPRRLIYGVSNRDFGVPDRFSASGSGTDFTLKINRVEAEDVGVYYCMQGTHWPLTFGQGTKVEIKR | 0.00302
ET160-74 (antibody, human IgG1, V domains shown, Tested as human IgG1 (hIgG1), lambda light chain) VH: QVQLVQSGAEVKKPGSSVKVSCKASGGTFSSYAISWVRQAPGQGLEWMGWMNPNSGNTGYAQKFQGRVTMTRNTSISTAYMELSSLRSEDTAVYYCARYSFHLDGWGQGTLVTVSS VL: QSVLTQPPSVSAAPGQKVTISCSGSSSNVGNNYVSWYQQVPGTAPKLLIYDNNRRPSGIPDRFSGSKSGTSATLGITGLQTGDEADYYCGTWDNSLRVELFGGGTKVTVLG | 0.00161

// next entry
Value of koff reported for the binder ET160-72 (antibody, human IgG1, V domains shown, Tested as human IgG1 (hIgG1), lambda light chain) VH: QVQLVQSGGGVVRSGGSLRLTCAASGFTFGDYGMSWVRQAPGKGLEWVSGINWNGGGTGYADSVKGRFTISRDNAKDSLYLQMNSLRAEDTALYYCARVWGCGSTTCYEGADDAFDIWGQGTMVTVSS VL: LPVLTQPPSISGAPRQRVTISCSGARSNIGNNAVNWYQQVPGEAPKLLIFYDDQQPSGISGRFSGSKSGTSASLAISGLQSEDEADYYCAAWDDSLNGWVFGGGTKLTVLG is 0.00212
